Entries annotated with measured abundance fitness
B1: Cold shock protein CspB, residues 1 to 66; numbered along this chain, P41016 (parent)
chain: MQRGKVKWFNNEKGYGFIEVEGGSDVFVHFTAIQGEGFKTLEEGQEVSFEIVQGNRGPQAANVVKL

# Variants of: B1
# test_details: abundance fitness (aPCA) (normalised: wild type 0, dead -1); higher = more abundant; growth selection in yeast, the domain comes from the species named
# particulars: Bacillus caldolyticus
Lab note: write the figure by itself, no unit.

The recorded abundance fitness for G44H is 0.014

The recorded abundance fitness for K7L is -0.058

The recorded abundance fitness for K13E is -0.133

The recorded abundance fitness for G37Y is -0.074

The recorded abundance fitness for E21F is -0.052

The recorded abundance fitness for K7A is -0.002

The recorded abundance fitness for Q45G is 0.032

The recorded abundance fitness for Q2E is 0.011

The recorded abundance fitness for Q34I is -0.169

The recorded abundance fitness for E36P is -0.017

The recorded abundance fitness for L41E is -0.482
